molecular target: Nitric oxide synthase 1 (Homo sapiens, UniProt P29475)
Sequence (P29475 whole entry): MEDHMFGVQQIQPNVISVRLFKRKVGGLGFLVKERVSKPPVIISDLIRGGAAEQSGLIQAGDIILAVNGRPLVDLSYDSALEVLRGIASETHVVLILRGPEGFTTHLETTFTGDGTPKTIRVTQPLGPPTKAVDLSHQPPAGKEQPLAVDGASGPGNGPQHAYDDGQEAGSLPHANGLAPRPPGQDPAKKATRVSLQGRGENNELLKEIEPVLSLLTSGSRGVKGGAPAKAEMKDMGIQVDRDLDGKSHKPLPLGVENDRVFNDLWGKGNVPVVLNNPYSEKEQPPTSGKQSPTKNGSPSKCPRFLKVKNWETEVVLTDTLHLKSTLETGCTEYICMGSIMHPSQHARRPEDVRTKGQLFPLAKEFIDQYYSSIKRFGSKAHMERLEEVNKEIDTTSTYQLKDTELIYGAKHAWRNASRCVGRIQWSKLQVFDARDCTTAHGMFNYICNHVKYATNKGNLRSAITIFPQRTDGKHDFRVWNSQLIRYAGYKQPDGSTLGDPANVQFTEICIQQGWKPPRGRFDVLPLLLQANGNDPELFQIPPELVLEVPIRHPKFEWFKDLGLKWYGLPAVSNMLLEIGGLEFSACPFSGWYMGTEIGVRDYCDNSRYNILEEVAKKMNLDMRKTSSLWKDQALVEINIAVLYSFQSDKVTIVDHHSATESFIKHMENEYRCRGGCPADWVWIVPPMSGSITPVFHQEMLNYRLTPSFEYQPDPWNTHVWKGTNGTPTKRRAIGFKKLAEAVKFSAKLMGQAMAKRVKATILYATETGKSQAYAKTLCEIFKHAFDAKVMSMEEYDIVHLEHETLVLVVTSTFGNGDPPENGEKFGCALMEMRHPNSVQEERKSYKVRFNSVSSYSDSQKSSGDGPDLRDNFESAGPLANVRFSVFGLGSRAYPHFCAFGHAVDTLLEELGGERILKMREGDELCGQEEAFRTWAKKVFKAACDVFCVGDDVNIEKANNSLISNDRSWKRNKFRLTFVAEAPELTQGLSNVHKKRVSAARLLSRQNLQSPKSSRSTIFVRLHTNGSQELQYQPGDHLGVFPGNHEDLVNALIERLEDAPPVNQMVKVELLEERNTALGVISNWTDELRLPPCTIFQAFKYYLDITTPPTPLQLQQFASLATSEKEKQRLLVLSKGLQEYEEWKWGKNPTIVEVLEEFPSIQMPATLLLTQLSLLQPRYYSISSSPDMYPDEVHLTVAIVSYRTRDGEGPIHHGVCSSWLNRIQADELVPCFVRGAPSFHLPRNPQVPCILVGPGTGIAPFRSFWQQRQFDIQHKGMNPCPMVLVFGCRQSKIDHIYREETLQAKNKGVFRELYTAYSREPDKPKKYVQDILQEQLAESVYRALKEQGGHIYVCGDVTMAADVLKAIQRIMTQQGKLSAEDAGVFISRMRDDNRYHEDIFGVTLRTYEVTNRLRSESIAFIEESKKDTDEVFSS
pIC50: −log10 of the molar value.
Reported pIC50 is given for each of the following compounds.

COMPOUND | pIC50
N=C(Nc1ccc2nc(NC3CCOCC3)sc2c1)c1cccs1 | 5.70
N=C(Nc1ccc2nc(NCCN3CCOCC3)sc2c1)c1cccs1 | 6.70
NC(=Nc1ccc2sc(NC3CCN(Cc4ccccc4)CC3)nc2c1)c1cccs1 | 6.40
COc1ccc(CN2CCC(Nc3nc4ccc(N=C(N)c5cccs5)cc4s3)CC2)cc1 | 6.70
N=C(Nc1ccc2nc(N)sc2c1)c1cccs1 | 6.70
N=C(Nc1ccc2nc(NCCc3ccc(Br)cc3)sc2c1)c1cccs1 | 5.36
N=C(Nc1ccc2sc(NC3CCN(Cc4ccc(F)cc4)CC3)nc2c1)c1cccs1 | 6.10
N=C(Nc1ccc2sc(N)nc2c1)c1cccs1 | 6.70
N=C(Nc1ccc2nc(NC3CCN(Cc4ccc(F)cc4)CC3)sc2c1)c1cccs1 | 6.70
N=C(Nc1ccc2nc(NC3CCN(Cc4ccccc4)CC3)sc2c1)c1cccs1 | 6.30
NC(=Nc1ccc2nc(NC3CCN(CCc4cnc[nH]4)CC3)sc2c1)c1cccs1 | 6.52
CN1CCCC1CCNc1nc2cc(NC(=N)c3cccs3)ccc2s1 (racemic) | 7.52

###

Target: Nitric oxide synthase 3 (Rattus norvegicus, UniProt Q62600)
Sequence (Q62600 whole entry): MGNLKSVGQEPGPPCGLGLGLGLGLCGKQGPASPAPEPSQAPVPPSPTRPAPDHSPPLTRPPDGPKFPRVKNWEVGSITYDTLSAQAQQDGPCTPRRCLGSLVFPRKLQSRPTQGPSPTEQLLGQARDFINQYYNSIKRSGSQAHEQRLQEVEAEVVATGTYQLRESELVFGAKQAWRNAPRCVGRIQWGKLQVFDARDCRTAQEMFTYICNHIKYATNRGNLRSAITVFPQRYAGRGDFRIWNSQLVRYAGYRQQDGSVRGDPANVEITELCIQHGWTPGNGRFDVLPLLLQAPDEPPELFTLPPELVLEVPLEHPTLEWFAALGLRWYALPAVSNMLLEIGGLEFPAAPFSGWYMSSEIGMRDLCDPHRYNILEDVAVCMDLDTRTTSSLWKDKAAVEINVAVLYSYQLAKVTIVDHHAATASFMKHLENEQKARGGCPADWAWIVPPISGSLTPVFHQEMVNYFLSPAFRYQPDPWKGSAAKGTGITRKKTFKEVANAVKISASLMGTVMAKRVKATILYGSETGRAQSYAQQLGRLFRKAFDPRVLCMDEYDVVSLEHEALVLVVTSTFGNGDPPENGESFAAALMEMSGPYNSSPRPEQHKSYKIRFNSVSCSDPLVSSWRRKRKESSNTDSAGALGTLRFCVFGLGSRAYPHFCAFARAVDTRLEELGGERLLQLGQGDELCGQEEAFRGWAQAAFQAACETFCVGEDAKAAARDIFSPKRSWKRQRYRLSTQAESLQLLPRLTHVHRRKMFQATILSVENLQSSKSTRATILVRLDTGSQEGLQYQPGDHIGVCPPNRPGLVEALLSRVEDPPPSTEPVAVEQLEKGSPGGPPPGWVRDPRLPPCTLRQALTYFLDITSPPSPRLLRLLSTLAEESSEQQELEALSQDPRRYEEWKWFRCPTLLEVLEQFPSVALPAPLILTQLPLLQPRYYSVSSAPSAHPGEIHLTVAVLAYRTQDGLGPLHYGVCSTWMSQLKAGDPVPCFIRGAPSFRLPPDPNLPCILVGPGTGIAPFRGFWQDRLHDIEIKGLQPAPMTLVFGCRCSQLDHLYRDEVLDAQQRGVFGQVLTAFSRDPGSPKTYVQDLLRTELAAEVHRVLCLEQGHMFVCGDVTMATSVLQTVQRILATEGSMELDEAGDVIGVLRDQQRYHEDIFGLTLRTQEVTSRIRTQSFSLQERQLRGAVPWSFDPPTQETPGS
pIC50: −log10 of the molar value.

STRUCTURE_NOTATION | pIC50
COc1cccc(CN2CCC(Nc3nc4ccc(N=C(N)c5cccs5)cc4s3)CC2)c1 | 5.89
N=C(Nc1ccc2nc(NC3CCN(Cc4ccccc4)CC3)sc2c1)c1cccs1 | 4.90
N=C(Nc1ccc2nc(NCCc3ccc(Br)cc3)sc2c1)c1cccs1 | 5.28
NC(=Nc1ccc2nc(NC3CCN(CCc4cnc[nH]4)CC3)sc2c1)c1cccs1 | 5.34
N=C(Nc1ccc2nc(NCCN3CCOCC3)sc2c1)c1cccs1 | 5.04
